- Tested on: bovine serum albumin (BSA)
- test_method_notes: Maillard fluorescence-based assay of AGEs formation, IC50 determination (BSA + D-ribose)
- condition_parameters: inhibition of Maillard fluorescence development; 0.075 mM BSA, 50 mM D-ribose, 37° C., 5 days
Where a name gives a salt, the structure may show the parent alone.
Please respond with reported IC50 for every item in the list.
Write the number in µM without appending the unit.

## Input Requested field: IC50. Item: `CNCC(=O)c1ccc(O)c(O)c1`
## Output 57

## Input Same question for `COc1ccc(-c2coc3cc(O)cc(O)c3c2=O)cc1` please.
## Output 290

## Input Also `Cc1cc(-c2ccc(/N=N/c3c(S(=O)(=O)O)cc4cc(S(=O)(=O)O)cc(N)c4c3O)c(C)c2)ccc1/N=N/c1c(S(=O)(=O)O)cc2cc(S(=O)(=O)O)cc(N)c2c1O` ?
## Output 240

## Input What do you get for NC(=O)c1cc([N+](=O)[O-])cc([N+](=O)[O-])c1 [3,5-Dinitrobenzamide] ?
## Output 780

## Input Now try `NC(=O)N/N=C/c1ccc([N+](=O)[O-])o1` .
## Output 46

## Input Consider next the compound `O=[N+]([O-])c1ccc(O)c2ncccc12` in the same way.
## Output 300

## Input Here is the next compound: NC(=O)c1ccc([N+](=O)[O-])cc1Cl [Aklomide]
## Output 350

## Input And then `Cc1cc(-c2ccc(/N=N/c3ccc4c(S(=O)(=O)O)cc(S(=O)(=O)O)c(N)c4c3O)c(C)c2)ccc1/N=N/c1ccc2c(S(=O)(=O)O)cc(S(=O)(=O)O)c(N)c2c1O` , what is it?
## Output 3700

## Input Could you do the same for `O=[N+]([O-])c1cc(I)c(O)c(I)c1` , please?
## Output 1300

## Input Same question for O=c1cc(-c2cccc(O)c2)oc2cc(O)c(O)cc12 [6,7,3′-Trihydroxyflavone] please.
## Output 940

## Input Ok, now `Nc1ncc([N+](=O)[O-])cn1`
## Output 810

## Input `O=C1c2c(O)cc(O)cc2O[C@H](c2ccc(O)c(O)c2)[C@H]1O` , same question.
## Output 100

## Input Check COC(CNC(C)C)c1ccc(O)c(O)c1 (centres unmarked) too.
## Output 78

## Input Next: `C[C@H](N)[C@H](O)c1ccc(O)c(O)c1`
## Output 52

## Input # repeat for Cc1c(C)c2c(c(C)c1O)CCC(C)(C(=O)O)O2 (centres unmarked)
## Output 470

## Input Then what about the compound CC(CCc1ccccc1)NC(CO)c1ccc(O)c(O)c1 (centres unmarked) [hydrochloride] ?
## Output 350

## Input Same question for `O=c1c(-c2ccc(O)cc2)coc2cc(O)cc(O)c12` please.
## Output 450

## Input Repeat for the following compound: `CC[C@@]1(O)C[C@H](O[C@H]2C[C@H](N(C)C)[C@H](O[C@H]3C[C@H](O)[C@H](O[C@H]4CCC(=O)[C@H](C)O4)[C@H](C)O3)[C@H](C)O2)c2c(cc3c(c2O)C(=O)c2c(O)cccc2C3=O)[C@H]1C(=O)OC`
## Output 2500

## Input Similarly, `O=C1CCN(c2ccccc2)N1` ?
## Output 1300

## Input Another compound to check: Cc1cc2c(OCC(CNC(C)(C)C)OC(=O)c3ccccc3)cccc2[nH]1 (centres unmarked)
## Output 170

## Input Okay, and `O=C1C[C@@H](c2ccc(O)c(O)c2)Oc2cc(O)cc(O)c21` ?
## Output 250
